Hi there, I'd appreciate the recorded protein stability index for every entry that follows.
Assay: protein stability index of a GFP-peptide fusion (GPS, HEK-293T) (PSI 1-6); higher = more stable;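 note: 24-mer peptide tiles fused after GFP, lentivirally expressed, FACS-sorted into six equal bins by GFP/DsRed ratio, decoded by Illumina sequencing, PSI is the read-weighted mean bin number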
Conditions: treatment: DMSO; c terminus: a fixed tail appended
Answers are plain numbers.

Answered cases to consult:
> print(dat)
                       sequence.string  reported
1  APKAGLEEAPAVTAGLKIFEPPAP [TNFSF13B]       4.6
2      LIHKADEVTLSEAGSTAGAAETRG [PALM]      5.31
3  VSPIQIDGAGRTWQDSDTVKLLVD [TOR1AIP2]      3.92
4    IFCEEHFPVAEQDKLLKHMIIEHK [ZNF277]      2.75
5      TSENLKLVHIVCHKKTTHKLNCDP [DFFB]      2.81
6    IGGNHLKGFSHLDVMLVECYDPKG [KLHL14]      2.11

Please find the next sequence below.
Lookup result for GKTFKQSSNLGQHQRIHTGEKPFE [ZNF232] ; measured protein stability index: 4.46

###

Assay: protein stability index of a GFP-peptide fusion (GPS, HEK-293T) (PSI 1-6); higher = more stable
Details: treatment: MLN4924 1 uM, 8 h; c terminus: a fixed tail appended
QUANTITY MEASURED: protein stability index
One number for each entry.

> print(dat)
                     sequence.string  reported
1  HLYQSSARRYAGPLHHQTQRFRLD [ELAVL3]      3.05
2    GMVTRCIIEVLSNALSKSSAPPIT [CHGB]      3.08
3   SAPHLENSGHTIFNDPFFIVETVC [KCNA4]      2.46

For the 8 sequences below, give their protein stability index values.
1. RASATTTITTAAATSVTVPGAGVP [ZBTB22]
2. RVDHGAEIITQSPGRSSVASPRRL [MAP2]
3. FVDFFVRLFTQLKFGVVQTSVEEC [CLCN6]
4. LAEGVSASLHTLLGDPCPMLESPG [HDAC6]
5. VCLPRSEDDDCDDDDDDDAQILPS [DRICH1]
6. NPNLSNRRGSTPLHMAVERRVRGV [RIPK4]
7. KIRRFNKAKPEPDILEEEKIYAYP [TMEM192]
8. PPTVSQTPVIAATPVPTITANVTS [BRD3]

Result ::
1. 4.45
2. 4.71
3. 3.07
4. 4.17
5. 5.14
6. 4.47
7. 3.54
8. 4.76

Would you mind giving protein stability index for every sequence in the list below?
1. QTWVRDHHPENGEEAVTVLEDLES [ZNF24]
2. LIHKADEVTLSEAGSTAGAAETRG [PALM]
3. LVVASGVIYCLGGYDGLNILNSVE [KLHL12]
4. MVMIRGNSGLKPKDNEFTSKPWHW [POMT2]
5. SKLSRKYVKAKKSIDKDEEFAGSS [FAN1]

Result ::
[5.43, 5.18, 3.03, 2.21, 4.64]

###

Experiment: protein stability index of a GFP-peptide fusion (GPS, HEK-293T) (PSI 1-6); higher = more stable
Details: treatment: MLN4924 1 uM, 8 h; c terminus: a fixed tail appended
Outcome label depends on protein stability index relative to 5: at/above gives 1 (yes), below gives 0 (no).

> print(dat)
                      sequence.string  qualitative.label
1    PKQLYFSARQGELQKVLLMLVDGI [EHMT1]             0 (no)
2     DHARGKSQVALKIIRNVGKYREAA [CLK3]             0 (no)
3     NPAPAAPCPLGEPKTQACSGSESP [MYCL]            1 (yes)
4   ILDAMAEETRQKQLLADEKMKQLT [TRIM35]             0 (no)
5  NGDVSAPSAILRTPESTKPGPVCQ [ANKRD40]             0 (no)

Query :: protein stability index >= 5 for EPPQDSHSRKTVLIKTIETRNGEV [PRPH] ?
Result :: 0 (no)

Query :: Identify whether the reported protein stability index of the following sequence is 5 or greater: NACATKEQKNHTFPRLNRNKYMVT [PLD5]
Result :: 0 (no)

Query :: Hi, just wondering whether KVKWTHEEDEQLRALVRQFGQQDW [MYBL2] shows protein stability index of 5 or higher.
Result :: 0 (no)

Query :: Please indicate if the recorded protein stability index for SLLVHGFKPACMSEIKNLERYMCS [TENT5D] meets or exceeds 5.
Result :: 0 (no)

Query :: # check: protein stability index of MEIMEAYSVARQFNLTPPICEQAE [KCNAB2] is greater than or equal to 5
Result :: 0 (no)

Query :: Is protein stability index for RSEALAVDGAGKPGAEEAQDPEGK [CHGA] at or above 5?
Result :: 1 (yes)

Query :: Given TRRSCIDESQISAEEAEDHGRIPD [FAM189A2] , state whether its protein stability index is at least 5.
Result :: 1 (yes)

###

Please go through the items and note down their protein stability index.
Test: protein stability index of a GFP-peptide fusion (GPS, HEK-293T) (PSI 1-6); higher = more stable
Settings: treatment: MLN4924 1 uM, 8 h; c terminus: a fixed tail appended
Answers are plain numbers.

Example entries and their recorded answers appear below.
> print(dat)
                    sequence.string        quantity.measured  reported
1  CFQSCLCCCCYQSKSLMTSVPMNG [EDNRA]  protein stability index      2.41
2  FQFLSWPDYGVPSSAASLIDFLRV [PTPN9]  protein stability index      2.53
3  LRFLYSDEVQIGPETVMTTLYTAK [BTBD1]  protein stability index      1.99
4  WLPESDCETVTCCLFSERDAAGAP [SMAD6]  protein stability index      3.96
5  YKENFLKRFQLTKLPPYLIFCIKR [USP39]  protein stability index      2.82

Hi there! I need protein stability index for each item below, if you can.
1. PKDIYSSFGFPRTVKHIDAALSEE [MMP1]
2. GNATLLRIIYQNKCMRNGPNALIA [EDNRA]
3. RTAQSEETRVWHRRDGKWQIVHFH [CAMK2A]
4. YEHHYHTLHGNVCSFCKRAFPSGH [ZNF511]

Result ::
[4.04, 2.51, 3.12, 3.19]

Please supply protein stability index for each of the following items, keeping them in order.
1. VVDRIQSSGKNVTLLVCGKKAYDY [PDZK1]
2. PKVEYVWRNIILMSLLHLGALYGI [SCD]
3. RLIEVEDMMVMGRKPDPMCVFTYV [SMTNL2]
4. VLEENGEKNQVQLGKLEATIKSLS [SASS6]
5. GEATAAPAPLCGGPSAEAYLLHPA [TBX6]
6. LMSGCSSELKNRMEYALNMLLQRC [PLK2]
7. RAACFDGHLEVVRYLVGEHQADLE [FEM1A]

Result ::
1. 2.54
2. 3.48
3. 2.59
4. 3.79
5. 4.47
6. 2.22
7. 3.39

###

Give protein stability index for every item shown.
Assay: protein stability index of a GFP-peptide fusion (GPS, HEK-293T) (PSI 1-6); higher = more stable
Settings: treatment: DMSO; c terminus: a fixed tail appended
Numbers only.

A selection of reference data follows.
> print(dat)
                     sequence.string        quantity.measured  reported
1  NSNGGNLNSPPGPHSAKTEEHTTI [CDC14A]  protein stability index      5.28
2  HQRKYTQSFCGENIMMPMGGMMPP [ZNF207]  protein stability index      2.34
3   PHTPGKPTSSCTSRSAPPGLQAPP [FOXJ1]  protein stability index      4.42
4    YQYLHYALFKANRLEKAVAAAYTF [P3H4]  protein stability index      2.22
5  GFPRVAPEDEVIVNQYVIRPGPSA [RNF208]  protein stability index      3.66

# return protein stability index for each item in the list
1. PTESEPVTINIQDLLSCSNFAVQH [MATN2]
2. KRAFKIKDFANTIPGHGGIMDRFD [CDS2]

Result ::
3.56
2.77

###

Experiment: protein stability index of a GFP-peptide fusion (GPS, HEK-293T) (PSI 1-6); higher = more stable
Details: treatment: DMSO; c terminus: a fixed tail appended
// class assignment uses protein stability index with these ranges: low = under 3, intermediate = from 3 up to 4, high = 4 and over

Example cases with answers are listed next.
> print(dat)
                     sequence.string  qualitative.label
1  KRKGIKSSIGRLFGKKEKGRLIQL [PPFIA4]                low
2  GILRRILRTLRDFPAEERARVLDR [ANKRD9]                low
3  AVKLADFGLAIEVEGEQQAWFGFA [CAMK2A]                low
4   SSAASLIDFLRVVRNQQSLAVSNM [PTPN9]                low

Query :: Looking at VSFLRSGTKLIFRRRPRQKEAGLS [C2CD2L] , which class would you pick?
Result :: low

Query :: Just checking, what class would you give QWLKDKILSEEGRRQQAKLKELQA [KCNAB2] here?
Result :: intermediate

Query :: # bin label for EEFAQAESKDQGKTLALARTMDIP [ALDH8A1]
Result :: high
